ASSAY SYSTEM: Amine oxidase [flavin-containing] A (Rattus norvegicus)
Sequence (P21396 whole entry): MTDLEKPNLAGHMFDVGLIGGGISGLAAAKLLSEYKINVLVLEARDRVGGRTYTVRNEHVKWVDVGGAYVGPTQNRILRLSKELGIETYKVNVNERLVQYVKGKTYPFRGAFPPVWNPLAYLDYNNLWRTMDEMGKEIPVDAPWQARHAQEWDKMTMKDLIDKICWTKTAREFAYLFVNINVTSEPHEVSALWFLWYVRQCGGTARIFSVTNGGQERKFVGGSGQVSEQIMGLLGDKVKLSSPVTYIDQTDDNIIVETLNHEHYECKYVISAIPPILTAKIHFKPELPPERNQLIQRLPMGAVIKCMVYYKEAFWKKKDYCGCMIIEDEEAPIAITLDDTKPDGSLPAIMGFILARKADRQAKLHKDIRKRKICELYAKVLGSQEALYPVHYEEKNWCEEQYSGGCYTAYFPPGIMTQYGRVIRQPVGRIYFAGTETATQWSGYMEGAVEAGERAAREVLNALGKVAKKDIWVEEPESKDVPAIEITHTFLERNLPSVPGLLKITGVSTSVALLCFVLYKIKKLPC
ASSAY PROTOCOL: Inhibitory concentration against monoamine oxidase A.
pIC50: −log10 of the molar value.
READOUT: pIC50

Would you please look over these solved cases?
IN: Can you share its pIC50? I mean this compound: `Cc1cccc2c1S(=O)(=O)c1ccccc1O2`
OUT: 7.52

IN: I am curious: what pIC50 value has been reported for CC(O)c1cccc2c1S(=O)(=O)c1ccccc1O2 (stereo in doubt; 34) ?
OUT: 5.60

IN: What measured pIC50 goes with COC(C)c1cccc2c1S(=O)(=O)c1ccccc1O2 (stereo not given) ?
OUT: 5.70

IN: Which value of pIC50 has been reported for CC(O)c1cccc2c1S(=O)(=O)c1ccccc1O2 (stereo in doubt; 35) in the records?
OUT: 6.60

IN: Value lookup for pIC50; key = O=[N+]([O-])CC(O)c1cccc2c1S(=O)(=O)c1ccccc1O2 (stereo not given)
OUT: 6.70

IN: Consider the compound CCc1ccc2c(c1)Oc1ccccc1[S+]2[O-] (stereo not given) and give its measured pIC50.
OUT: 6.52

IN: Item `Cc1cccc2c1S(=O)(=O)c1ccccc1C2=O` has what recorded pIC50?
OUT: 7.22

IN: Entry under review: `CCc1ccc2c(c1)Oc1ccccc1S2(=O)=O` . Reported pIC50?
OUT: 8.22

IN: What pIC50 value was documented for this compound, `CCc1cccc2c1S(=O)(=O)c1ccc(O)cc1O2` ?
OUT: 6.96

IN: # input compound: `CCc1c(OC)ccc2c1S(=O)(=O)c1ccccc1O2` ; wanted: its pIC50
OUT: 6.22

1: Cc1cccc2c1S(=O)(=O)c1c(C)cccc1O2
2: Cc1cccc2c1[S+]([O-])c1ccccc1O2 (stereo not given)
IN: Returns: the argument ( 1 or 2 ) having the larger pIC50. Respond using the label that marks the chosen record.
OUT: 1

* * *

ASSAY SYSTEM: Amine oxidase [flavin-containing] A (Rattus norvegicus, UniProt P21396)
ASSAY PROTOCOL: Percent inhibition against monoamine oxidase A at 0.1 uM concentration.
READOUT: inhibition at 0.1 µM (%)

# count of solved cases: 3
IN: State its inhibition at 0.1 µM on Amine oxidase [flavin-containing] A (Rattus norvegicus, UniProt P21396): `COc1cccc2c1S(=O)(=O)c1ccccc1O2`
OUT: 60

IN: Write down the reported inhibition at 0.1 µM of `CCc1cccc2c1Sc1ccccc1O2` , test system: Amine oxidase [flavin-containing] A (Rattus norvegicus, UniProt P21396).
OUT: 15

IN: Record lookup: for Amine oxidase [flavin-containing] A (Rattus norvegicus, UniProt P21396), what inhibition at 0.1 µM belongs to `O=Cc1cccc2c1S(=O)(=O)c1ccccc1O2` ?
OUT: 45

I: CC(C)(C)c1cccc2c1S(=O)(=O)c1ccccc1C2=O
II: O=S1(=O)c2ccccc2Oc2cccc(O)c21
IN: Hi, I'm comparing I with II and wondering which one has the bigger number for inhibition at 0.1 µM. Any idea? Your answer should be the label of the entry you select.
OUT: II
(II: 11%, I: 0%)

I: CCOc1cccc2c1S(=O)(=O)c1ccccc1O2
II: CC1(C)OCC(c2cccc3c2S(=O)(=O)c2ccccc2O3)O1 (configuration not stated)
IN: I would appreciate it if you could say which entry, I or II , has the lower inhibition at 0.1 µM value. Mark your selection by writing its label.
OUT: II
